Collected set of Kd measured with Vascular endothelial growth factor receptor 2 (Homo sapiens, UniProt P35968) across studies.
Sequence (P35968 whole entry): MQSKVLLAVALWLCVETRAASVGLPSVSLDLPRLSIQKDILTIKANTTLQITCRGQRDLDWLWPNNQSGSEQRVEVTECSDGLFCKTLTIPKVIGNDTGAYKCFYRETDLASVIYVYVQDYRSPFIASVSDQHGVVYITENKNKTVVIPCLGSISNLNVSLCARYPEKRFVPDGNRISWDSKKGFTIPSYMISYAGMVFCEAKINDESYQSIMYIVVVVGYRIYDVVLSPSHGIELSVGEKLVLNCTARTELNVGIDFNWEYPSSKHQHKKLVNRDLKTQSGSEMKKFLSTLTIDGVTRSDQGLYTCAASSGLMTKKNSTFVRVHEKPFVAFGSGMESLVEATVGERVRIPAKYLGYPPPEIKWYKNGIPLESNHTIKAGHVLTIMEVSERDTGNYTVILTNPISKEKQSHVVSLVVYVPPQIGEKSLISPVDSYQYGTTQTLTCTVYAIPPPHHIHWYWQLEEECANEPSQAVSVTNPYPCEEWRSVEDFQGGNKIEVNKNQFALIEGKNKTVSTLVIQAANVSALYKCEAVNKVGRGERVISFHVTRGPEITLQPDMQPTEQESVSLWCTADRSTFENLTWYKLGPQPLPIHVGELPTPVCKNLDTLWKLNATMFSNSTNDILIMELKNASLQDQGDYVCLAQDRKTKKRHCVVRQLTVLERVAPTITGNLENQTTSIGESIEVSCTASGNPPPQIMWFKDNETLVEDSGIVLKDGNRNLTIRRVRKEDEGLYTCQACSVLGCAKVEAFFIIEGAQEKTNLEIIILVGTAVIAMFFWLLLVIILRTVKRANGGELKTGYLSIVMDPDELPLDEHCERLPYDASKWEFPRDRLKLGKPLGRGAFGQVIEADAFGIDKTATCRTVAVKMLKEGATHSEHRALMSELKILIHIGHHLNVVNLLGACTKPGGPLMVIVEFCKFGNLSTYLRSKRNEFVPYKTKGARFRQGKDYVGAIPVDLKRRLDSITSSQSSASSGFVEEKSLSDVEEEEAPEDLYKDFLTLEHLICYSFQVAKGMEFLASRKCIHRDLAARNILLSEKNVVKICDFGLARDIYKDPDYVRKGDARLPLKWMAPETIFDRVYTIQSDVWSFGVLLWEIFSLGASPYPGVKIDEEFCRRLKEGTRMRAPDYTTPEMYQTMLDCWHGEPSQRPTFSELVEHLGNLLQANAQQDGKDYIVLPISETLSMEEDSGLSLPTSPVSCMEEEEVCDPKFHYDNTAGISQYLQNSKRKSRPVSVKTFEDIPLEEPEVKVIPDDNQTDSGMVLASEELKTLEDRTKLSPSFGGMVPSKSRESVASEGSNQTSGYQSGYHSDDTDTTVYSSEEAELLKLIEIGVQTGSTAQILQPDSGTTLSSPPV
Write the value in nM as a bare number.

Past entries and their recorded results:
CCN(CC)CCNC(=O)c1c(C)[nH]c(/C=C2\C(=O)Nc3ccc(OC)cc32)c1C
20
Cn1ccc2ncnc(Oc3ccc(NC(=O)Nc4cccc(C(F)(F)F)c4)c(F)c3)c21
19

Consider now this further molecule.
What value of Kd has been recorded for this entry: `CCN(CC)CCNC(=O)c1c(C)[nH]c(/C=C2\C(=O)Nc3ccc(I)cc32)c1C`
16
